target: T1, AAV2 (UniProt P03135 1-735); experiment: SPR, AAV on CM5 chip;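 also: surface plasmon resonance with AAV amine-coupled to the chip as ligand, nanobodies injected as analyte over a concentration series, rate constants and affinity fitted from binding curves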
T1 construct: also called adeno-associated virus serotype 2
T1 sequence (P03135 whole entry): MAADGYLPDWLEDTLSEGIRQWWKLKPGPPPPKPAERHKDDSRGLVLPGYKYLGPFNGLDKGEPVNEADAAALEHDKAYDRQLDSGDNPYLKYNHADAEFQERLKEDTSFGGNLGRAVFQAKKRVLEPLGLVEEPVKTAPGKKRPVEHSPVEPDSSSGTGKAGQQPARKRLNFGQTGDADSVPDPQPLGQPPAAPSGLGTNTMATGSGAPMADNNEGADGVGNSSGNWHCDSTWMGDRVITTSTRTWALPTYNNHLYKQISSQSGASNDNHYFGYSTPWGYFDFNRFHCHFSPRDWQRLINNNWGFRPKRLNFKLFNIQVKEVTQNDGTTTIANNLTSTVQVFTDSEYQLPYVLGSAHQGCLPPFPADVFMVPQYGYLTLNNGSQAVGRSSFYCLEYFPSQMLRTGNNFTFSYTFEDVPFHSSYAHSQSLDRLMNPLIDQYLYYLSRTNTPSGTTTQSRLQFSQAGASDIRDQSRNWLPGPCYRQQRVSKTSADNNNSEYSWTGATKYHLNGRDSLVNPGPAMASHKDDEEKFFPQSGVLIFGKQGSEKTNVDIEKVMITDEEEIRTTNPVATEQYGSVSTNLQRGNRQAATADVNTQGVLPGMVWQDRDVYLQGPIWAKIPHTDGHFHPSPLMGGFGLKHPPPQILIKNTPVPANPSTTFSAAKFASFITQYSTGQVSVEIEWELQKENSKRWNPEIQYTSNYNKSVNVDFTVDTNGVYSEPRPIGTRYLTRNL
Measured kon, listed per entry for reference.
Report the value in M⁻¹ s⁻¹ with no unit label.

Example entries begin here.
binder="A4-048 (VHH) VHH: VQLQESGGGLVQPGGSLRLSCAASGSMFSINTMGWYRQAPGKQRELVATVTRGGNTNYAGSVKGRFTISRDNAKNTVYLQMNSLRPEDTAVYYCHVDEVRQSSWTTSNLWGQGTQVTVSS" recorded_result=8850
binder="A4-039 (VHH) VHH: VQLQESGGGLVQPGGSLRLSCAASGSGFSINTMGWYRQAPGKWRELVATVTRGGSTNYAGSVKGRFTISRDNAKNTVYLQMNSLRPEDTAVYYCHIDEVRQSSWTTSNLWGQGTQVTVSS" recorded_result=3800

Note: attention shifts to another entry.
# input Data request, read-out kon, for A4-011 (VHH) VHH: VQLQESGGGLVQAGGSLRLSCAASGSIFSINSMGWYRQAPGKQRELVATVTRGGNTNYAGSVKGRFTISRDNAKNTVYLQMNSLRPEDTAVYYCHVDEVRESSWTTSNLWGQGTQVTVSS
# output 163000
